Sequence of the target: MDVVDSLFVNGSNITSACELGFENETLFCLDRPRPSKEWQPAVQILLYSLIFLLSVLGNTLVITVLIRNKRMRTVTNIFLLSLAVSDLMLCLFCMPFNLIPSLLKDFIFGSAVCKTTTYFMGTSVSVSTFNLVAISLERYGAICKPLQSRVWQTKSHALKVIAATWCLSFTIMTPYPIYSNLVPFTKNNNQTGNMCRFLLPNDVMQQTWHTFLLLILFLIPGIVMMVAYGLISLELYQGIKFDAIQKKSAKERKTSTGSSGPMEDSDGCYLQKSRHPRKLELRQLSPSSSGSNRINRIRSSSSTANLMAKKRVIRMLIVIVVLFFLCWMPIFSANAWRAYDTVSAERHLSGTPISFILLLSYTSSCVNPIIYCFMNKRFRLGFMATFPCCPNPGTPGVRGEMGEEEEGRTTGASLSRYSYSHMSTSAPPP
pKi: −log10 of the molar value.
ATTRIBUTE MEASURED: pKi

CHEMICAL STRUCTURE	pKi
Cc1ccccc1-c1nc(C(=O)Nc2cccc(CC(=O)O)c2)c(CCC23CC4CC(CC(C4)C2)C3)[nH]1	6.40

(a) Cc1ccccc1-c1nc(C(=O)Nc2cccc(C(=O)O)c2)c(CCC23CC4CC(CC(C4)C2)C3)[nH]1
(b) O=C(O)c1cccc(NC(=O)c2[nH]c(C34CCC(CC3)CC4)nc2CCC23CC4CC(CC(C4)C2)C3)c1
Req: a or b : whose pKi is greater? Please reply using the label of the selected record.
Resp: b
(b: 6.49, a: 6.18)

====

Biological target: Gastrin/cholecystokinin type B receptor (Canis lupus familiaris, UniProt P30552)
Sequence (P30552 whole entry): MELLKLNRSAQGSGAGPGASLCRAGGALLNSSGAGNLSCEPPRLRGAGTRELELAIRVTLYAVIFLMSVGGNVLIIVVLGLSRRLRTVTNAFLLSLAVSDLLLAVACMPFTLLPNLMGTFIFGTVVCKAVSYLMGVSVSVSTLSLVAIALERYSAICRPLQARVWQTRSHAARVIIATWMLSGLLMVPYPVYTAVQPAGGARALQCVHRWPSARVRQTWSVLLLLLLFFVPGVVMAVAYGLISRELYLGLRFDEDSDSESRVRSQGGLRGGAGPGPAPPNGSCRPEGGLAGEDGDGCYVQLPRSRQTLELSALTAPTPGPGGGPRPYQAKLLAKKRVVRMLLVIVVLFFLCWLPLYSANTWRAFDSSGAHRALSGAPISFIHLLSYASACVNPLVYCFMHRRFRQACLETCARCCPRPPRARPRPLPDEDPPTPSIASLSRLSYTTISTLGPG
ATTRIBUTE MEASURED: IC50 (nM)

(a) Cc1cc(C)c(-c2nc(C(=O)Nc3cccc(C(=O)O)c3)c(COC34CC5CC(CC(C5)C3)C4)[nH]2)c(C)c1
(b) Cc1cc(C)c(-c2nc(C(=O)Nc3ccc(C)c(C(=O)O)c3)c(CCC34CC5CC(CC(C5)C3)C4)[nH]2)c(C)c1
Req: Consider a and b . Which of these has its IC50 at a higher number? Please respond with the label that marks your chosen entry.
Resp: a

====

Target: Gastrin/cholecystokinin type B receptor (Mus musculus)
Sequence (P56481 whole entry): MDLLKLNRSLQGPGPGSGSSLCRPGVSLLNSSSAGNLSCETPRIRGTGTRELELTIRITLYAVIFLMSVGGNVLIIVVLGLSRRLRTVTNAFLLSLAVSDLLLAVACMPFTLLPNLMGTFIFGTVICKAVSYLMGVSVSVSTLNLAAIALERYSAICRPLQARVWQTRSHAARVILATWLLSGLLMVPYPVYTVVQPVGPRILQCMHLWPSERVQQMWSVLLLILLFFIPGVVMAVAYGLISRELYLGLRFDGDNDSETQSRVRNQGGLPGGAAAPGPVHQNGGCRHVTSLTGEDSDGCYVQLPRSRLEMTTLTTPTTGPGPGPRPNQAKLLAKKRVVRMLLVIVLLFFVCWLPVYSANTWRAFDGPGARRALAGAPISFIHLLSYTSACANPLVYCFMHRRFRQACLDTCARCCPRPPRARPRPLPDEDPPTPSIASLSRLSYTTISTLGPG
ATTRIBUTE MEASURED: Ki (µM)

# count of solved cases: 3
CHEMICAL STRUCTURE	TESTED TARGET	RESULT VALUE
O=C(O)c1cccc(NC(=O)c2[nH]c(C3CCCC3)nc2CCC23CC4CC(CC(C4)C2)C3)c1	Gastrin/cholecystokinin type B receptor (Mus musculus)	0.0398
O=C(O)c1cccc(NC(=O)c2[nH]c(C34CCC(CC3)CC4)nc2CCC23CC4CC(CC(C4)C2)C3)c1	Gastrin/cholecystokinin type B receptor (Mus musculus)	0.0204
Cc1cc(C)c(-c2nc(C(=O)Nc3cccc(C(=O)O)c3)c(CCC34CC5CC(CC(C5)C3)C4)[nH]2)c(C)c1	Gastrin/cholecystokinin type B receptor (Mus musculus)	0.0269

(a) Cc1ccc(NC(=O)c2[nH]c(C3(C)CCCCC3)nc2CCC23CC4CC(CC(C4)C2)C3)cc1C(=O)O
(b) O=C(O)c1cccc(NC(=O)c2[nH]c(-c3ccccc3)nc2CCC23CC4CC(CC(C4)C2)C3)c1
(c) O=C(O)c1cccc(NC(=O)c2nc(C34CCC(CC3)CC4)[nH]c2COC23CC4CC(CC(C4)C2)C3)c1
(d) Cc1cccc(C)c1-c1nc(C(=O)Nc2cccc(C(=O)O)c2)c(CCC23CC4CC(CC(C4)C2)C3)[nH]1
Req: Please list these in order of increasing Ki. Thank you! Please express your ranking as an ordered list of the labels.
Resp: a, c, d, b
